test: Solubility in PBS; format: physicochemical; conditions: Solubility (uM)
Assay Readout: Solubility (µM)
Answer in µM, number only, no unit symbol.

CC(=O)N1CCC[C@]12CC=CCCCC1(CCCC=CCCCOC(=O)N3CC[C@@](C(=O)N[C@@H](Cc4ccccc4Cl)C(=O)N[C@@H](Cc4csc5ccccc45)C(=O)N[C@@H](CCC(N)=O)C(N)=O)(C3)NC(=O)[C@H](CO)NC(=O)[C@H](Cc3cccc(C(F)(F)F)c3)NC(=O)[C@H](C)NC(=O)[C@H](C)NC(=O)[C@H](CC(=O)O)NC(=O)[C@H](CC(=O)O)NC1=O)NC(=O)[C@H](CC1CCCCC1)NC(=O)[C@H](CC(=O)O)NC2=O (some centres unmarked) = 31

// next item, Solubility requested
According to the records, this compound CC(=O)N1CCC[C@]12CC=CCCCC1(CCCC=CCCCCCC[C@@](C)(C(=O)N[C@@H](Cc3ccccc3)C(=O)N[C@@H](Cc3csc4ccccc34)C(=O)N[C@@H](Cc3c[nH]cn3)C(N)=O)NC(=O)[C@H](CC(N)=O)NC(=O)[C@H](Cc3ccccc3)NC(=O)[C@H](C)NC(=O)[C@H](C)NC(=O)[C@H](CC(=O)O)NC(=O)[C@H](CC(=O)O)NC1=O)NC(=O)[C@H](CC(C)(C)C)NC(=O)[C@H](CC(=O)O)NC2=O (some centres unmarked) displays Solubility of 22

The measured values listed here are drawn from patent US20240116985A1.
